- assay_details: in vitro
- measurement_parameters: human
parameter_measured: CC50 (µM)
Your answer should be a plain number; it is taken to be in µM.

// below: answered compounds
- Cc1cc(C)cc(N2C(=O)CN(C)C2c2cc3cc(Cc4ccc5oc(C6N(C)CC(=O)N6c6cc(C)cc(C)c6)cc5c4)ccc3o2)c1 (stereo not shown): 54.1
- CC(C)n1c(-c2cc3cc(Cc4ccc5oc(-c6nc7ccccc7n6C(C)C)cc5c4)ccc3o2)nc2ccccc21: 69.3
- Cc1ccc(C)c(N2C(=O)CN(C)C2c2cc3cc(Cc4ccc5oc(C6N(C)CC(=O)N6c6cc(C)ccc6C)cc5c4)ccc3o2)c1 (stereo not shown): 18.5

(Q) Reported CC50 for CN1CC(=O)N(c2cccc(C(F)(F)F)c2)C1c1cc2cc(Cc3ccc4oc(C5N(C)CC(=O)N5c5cccc(C(F)(F)F)c5)cc4c3)ccc2o1 (stereo not shown) : what is it?
(A) 75

(Q) What value of CC50 has been recorded for this entry: CN1CC(=O)N(c2ccc(F)cc2)C1c1cc2cc(Cc3ccc4oc(C5N(C)CC(=O)N5c5ccc(F)cc5)cc4c3)ccc2o1 (stereo not shown)
(A) 38.5

(Q) Suppose we examine the compound Cc1cccc(N2C(=O)CN(C)C2c2cc3cc(Cc4ccc5oc(C6N(C)CC(=O)N6c6cccc(C)c6C)cc5c4)ccc3o2)c1C (stereo not shown) ; what CC50 value has been reported?
(A) 41

(Q) Using the record for CN1CC(=O)N(c2ccc(Cl)cc2)C1c1cc2cc(Cc3ccc4oc(C5N(C)CC(=O)N5c5ccc(Cl)cc5)cc4c3)ccc2o1 (stereo not shown) , report its CC50.
(A) 12.3
